Give Fold Amiloride for every item shown.
tested on: airway epithelial sodium currents in canine bronchial epithelia (ENaC); assay: In vitro measure of sodium channel blocking activity (short circuit current, Ussing chambers); type: cell-based; details: potency in canine bronchial epithelia, reported as fold-enhancement relative to amiloride
Answers are plain numbers.

Consider the following illustrative entries.
{"columns": ["smiles representation", "Fold Amiloride"],
 "data": [
  ["N=C(NCCCCc1ccc(OCCNCC(N)=O)cc1)NC(=O)c1nc(Cl)c(N)nc1N", 10],
  ["N=C(NCCCCc1ccc(OCCN(CC(N)=O)CC(N)=O)cc1)NC(=O)c1nc(Cl)c(N)nc1N", 77],
  ["N=C(NCCCCc1ccc(OCCN(CC(=O)O)CC(=O)O)cc1)NC(=O)c1nc(Cl)c(N)nc1N", 16]
]}

Alright, here's another compound for you.
Task: Enter recorded Fold Amiloride with airway epithelial sodium currents in canine bronchial epithelia (ENaC) for COC(=O)CC(CC(=O)OC)NCCOc1ccc(CCCCNC(=N)NC(=O)c2nc(Cl)c(N)nc2N)cc1 here.
Output: 81

* * *

reported endpoint: melting point

Field: melting point. Fill in for each record below.
1. COC(=O)CC(CC(=O)OC)NCCOc1ccc(CCCCNC(N)=NC(=O)c2nc(Cl)c(N)nc2N)cc1 [ALB 28588]
2. NC(=O)CN(CCOc1ccc(CCCCNC(N)=NC(=O)c2nc(Cl)c(N)nc2N)cc1)CC(N)=O [ALB 28062]
3. NC(=NC(=O)c1nc(Cl)c(N)nc1N)NCCCCc1ccc(OCCNCC(=O)O)cc1 [ALB 28897]

Output:
1. 84 to 88 °C
2. 98 to 100 °C (dec.)
3. 110 to 112 °C (dec.)

Task: Give the reported value of melting point for this record: NC(=O)CNCCOc1ccc(CCCCNC(N)=NC(=O)c2nc(Cl)c(N)nc2N)cc1 [ALB 28683]
Output: 92 to 94 °C (dec.)

These data points were gathered from patent US8211895B2.
